Tested on: Kidney
Assay comment: Biodistribution in Sprague-Dawley rat kidney assessed per gram of tissue at 1 MBq, iv after 0.5 hrs
Assay type: ADME, organism-based
Recorded conditions: in vivo
Listing of recorded Drug uptake by entry.

Sample smiles: CCN(CC)C(=O)Cc1c(-c2ccc(OCCC[18F])cc2)nn2c(C)cc(C)nc12
Drug uptake (%ID): 4.9

Sample smiles: CCN(CC)C(=O)Cc1c(-c2ccc(OCC[18F])cc2)nn2c(C)cc(C)nc12
Drug uptake (%ID): 3.6

Sample smiles: CCN(CC)C(=O)Cc1c(-c2ccc(OCC[18F])cc2)nc2ccc(Cl)cn12
Drug uptake (%ID): 3.2

Sample smiles: CCN(CC)C(=O)Cc1c(-c2ccc(OCCC[18F])cc2)nc2ccc(Cl)cn12
Drug uptake (%ID): 5

* * *

Measured Drug uptake of individual entries
Test system: Heart
Assay comment: Biodistribution in Sprague-Dawley rat heart assessed per gram of tissue at 1 MBq, iv after 4 hrs
Format: ADME, organism-based
Recorded conditions: in vivo
Metric: Drug uptake (%ID)

Sample smiles: CCN(CC)C(=O)Cc1c(-c2ccc(OCC[18F])cc2)nn2c(C)cc(C)nc12
Experimental target: Heart
Metric: Drug uptake
Reading: 4.3

Sample smiles: CCN(CC)C(=O)Cc1c(-c2ccc(OCC[18F])cc2)nc2ccc(Cl)cn12
Experimental target: Heart
Metric: Drug uptake
Reading: 2.8

Sample smiles: CCN(CC)C(=O)Cc1c(-c2ccc(OCCC[18F])cc2)nc2ccc(Cl)cn12
Experimental target: Heart
Metric: Drug uptake
Reading: 2.9

Sample smiles: CCN(CC)C(=O)Cc1c(-c2ccc(OCCC[18F])cc2)nn2c(C)cc(C)nc12
Experimental target: Heart
Metric: Drug uptake
Reading: 5.8

* * *

Tested on: Femur
Assay comment: Biodistribution in Sprague-Dawley rat femur at 1 MBq, iv after 0.25 hrs
Type: ADME, organism-based
Recorded conditions: in vivo
Item-by-item account of Drug uptake
Metric: Drug uptake (% ID/g)

Sample smiles: CCN(CC)C(=O)Cc1c(-c2ccc(OCC[18F])cc2)nc2ccc(Cl)cn12
Experimental target: Femur
Metric: Drug uptake
Reading: 0.4

Sample smiles: CCN(CC)C(=O)Cc1c(-c2ccc(OCCC[18F])cc2)nc2ccc(Cl)cn12
Experimental target: Femur
Metric: Drug uptake
Reading: 0.6

Sample smiles: CCN(CC)C(=O)Cc1c(-c2ccc(OCC[18F])cc2)nn2c(C)cc(C)nc12
Experimental target: Femur
Metric: Drug uptake
Reading: 0.4

Sample smiles: CCN(CC)C(=O)Cc1c(-c2ccc(OCCC[18F])cc2)nn2c(C)cc(C)nc12
Experimental target: Femur
Metric: Drug uptake
Reading: 0.6

* * *

Tested on: Heart
Assay comment: Biodistribution in Sprague-Dawley rat heart assessed per gram of tissue at 1 MBq, iv after 0.5 hrs
Format: ADME, organism-based
Recorded conditions: in vivo
Metric: Drug uptake (%ID)

Compound: CCN(CC)C(=O)Cc1c(-c2ccc(OCC[18F])cc2)nc2ccc(Cl)cn12
Reading: 4.4

Compound: CCN(CC)C(=O)Cc1c(-c2ccc(OCC[18F])cc2)nn2c(C)cc(C)nc12 [DPA-714 F-18]
Reading: 5.6

Compound: CCN(CC)C(=O)Cc1c(-c2ccc(OCCC[18F])cc2)nc2ccc(Cl)cn12
Reading: 8.3

Compound: CCN(CC)C(=O)Cc1c(-c2ccc(OCCC[18F])cc2)nn2c(C)cc(C)nc12
Reading: 9

* * *

Experimental target: Translocator protein (Rattus norvegicus, UniProt P16257)
Sequence (P16257 whole entry, looked up): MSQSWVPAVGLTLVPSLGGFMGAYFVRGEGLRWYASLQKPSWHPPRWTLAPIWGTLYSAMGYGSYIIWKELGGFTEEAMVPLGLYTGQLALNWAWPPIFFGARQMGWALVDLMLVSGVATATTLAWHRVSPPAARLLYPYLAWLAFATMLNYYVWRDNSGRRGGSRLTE
Assay comment: Displacement of [3H]PK11195 from peripheral benzodiazepine receptor in rat kidney membrane
Format: cell membranes
pKi: −log10 of the molar value.
Each entry below lists one item and its recorded pKi value.

Sample smiles: CCN(CC)C(=O)Cc1c(-c2ccc(OCCF)cc2)nc2ccc(Cl)cn12
pKi: 8.24

Sample smiles: CCN(CC)C(=O)Cc1c(-c2ccc(OCCCF)cc2)nc2ccc(Cl)cn12
pKi: 8.43

* * *

Assay comment: Metabolic stability in Sprague-Dawley rat frontal cortex assessed as drug remaining at 30 MBq after 4 hrs by Radio-HPLC analysis
Assay type: ADME, tissue-based
Recorded conditions: read-out: Stability
The following molecules are shown together with reported remaining at 4 h values.
Metric: remaining at 4 h (%)

Sample smiles: CCN(CC)C(=O)Cc1c(-c2ccc(OCC[18F])cc2)nn2c(C)cc(C)nc12
Metric: remaining at 4 h
Reading: 10
--
Sample smiles: CCN(CC)C(=O)Cc1c(-c2ccc(OCCC[18F])cc2)nc2ccc(Cl)cn12
Metric: remaining at 4 h
Reading: 30
--
Sample smiles: CCN(CC)C(=O)Cc1c(-c2ccc(OCC[18F])cc2)nc2ccc(Cl)cn12
Metric: remaining at 4 h
Reading: 10
--
Sample smiles: CCN(CC)C(=O)Cc1c(-c2ccc(OCCC[18F])cc2)nn2c(C)cc(C)nc12
Metric: remaining at 4 h
Reading: 30

* * *

System: Spleen
Assay comment: Biodistribution in Sprague-Dawley rat spleen assessed per gram of tissue at 1 MBq, iv after 0.5 hrs
Format: ADME, organism-based
Recorded conditions: in vivo

Molecule: CCN(CC)C(=O)Cc1c(-c2ccc(OCCC[18F])cc2)nn2c(C)cc(C)nc12
Drug uptake / %ID: 5.5

Molecule: CCN(CC)C(=O)Cc1c(-c2ccc(OCC[18F])cc2)nc2ccc(Cl)cn12
Drug uptake / %ID: 3.9

Molecule: CCN(CC)C(=O)Cc1c(-c2ccc(OCCC[18F])cc2)nc2ccc(Cl)cn12
Drug uptake / %ID: 6

Molecule: CCN(CC)C(=O)Cc1c(-c2ccc(OCC[18F])cc2)nn2c(C)cc(C)nc12 [DPA-714 F-18]
Drug uptake / %ID: 4.7

* * *

Tested on: Liver
Assay comment: Biodistribution in Sprague-Dawley rat liver assessed per gram of tissue at 1 MBq, iv after 0.25 hrs
Assay type: ADME, organism-based
Recorded conditions: in vivo

Sample smiles: CCN(CC)C(=O)Cc1c(-c2ccc(OCCC[18F])cc2)nn2c(C)cc(C)nc12
Experimental target: Liver
Result units: %ID
Drug uptake: 1.08

Sample smiles: CCN(CC)C(=O)Cc1c(-c2ccc(OCCC[18F])cc2)nc2ccc(Cl)cn12
Experimental target: Liver
Result units: %ID
Drug uptake: 1.08

Sample smiles: CCN(CC)C(=O)Cc1c(-c2ccc(OCC[18F])cc2)nc2ccc(Cl)cn12
Experimental target: Liver
Result units: %ID
Drug uptake: 0.63

Sample smiles: CCN(CC)C(=O)Cc1c(-c2ccc(OCC[18F])cc2)nn2c(C)cc(C)nc12
Experimental target: Liver
Result units: %ID
Drug uptake: 0.63

* * *

System: Adrenal
Assay comment: Biodistribution in Sprague-Dawley rat adrenals assessed per gram of tissue at 1 MBq, iv after 0.25 hrs
Type: ADME, organism-based, Adrenal tissue
Recorded conditions: in vivo

Sample smiles: CCN(CC)C(=O)Cc1c(-c2ccc(OCC[18F])cc2)nc2ccc(Cl)cn12
Drug uptake (%ID): 6.7
--
Sample smiles: CCN(CC)C(=O)Cc1c(-c2ccc(OCCC[18F])cc2)nc2ccc(Cl)cn12
Drug uptake (%ID): 8.5
--
Sample smiles: CCN(CC)C(=O)Cc1c(-c2ccc(OCCC[18F])cc2)nn2c(C)cc(C)nc12
Drug uptake (%ID): 8
--
Sample smiles: CCN(CC)C(=O)Cc1c(-c2ccc(OCC[18F])cc2)nn2c(C)cc(C)nc12
Drug uptake (%ID): 5.6

* * *

System: Adrenal
Assay comment: Biodistribution in Sprague-Dawley rat adrenals assessed per gram of tissue at 1 MBq, iv after 4 hrs
Assay type: ADME, organism-based, Adrenal tissue
Recorded conditions: in vivo
Quick reference for Drug uptake among some compounds

Compound: CCN(CC)C(=O)Cc1c(-c2ccc(OCCC[18F])cc2)nc2ccc(Cl)cn12
Drug uptake / %ID: 11.4
//
Compound: CCN(CC)C(=O)Cc1c(-c2ccc(OCC[18F])cc2)nn2c(C)cc(C)nc12 [DPA-714 F-18]
Drug uptake / %ID: 9.7
//
Compound: CCN(CC)C(=O)Cc1c(-c2ccc(OCC[18F])cc2)nc2ccc(Cl)cn12
Drug uptake / %ID: 7.1
//
Compound: CCN(CC)C(=O)Cc1c(-c2ccc(OCCC[18F])cc2)nn2c(C)cc(C)nc12
Drug uptake / %ID: 12.2

* * *

Assay comment: Ratio of drug level in olfactory bulb to blood in Sprague-Dawley rat at 1 MBq, iv
Format: ADME

Sample smiles: CCN(CC)C(=O)Cc1c(-c2ccc(OCC[18F])cc2)nn2c(C)cc(C)nc12
Kp: 2
//
Sample smiles: CCN(CC)C(=O)Cc1c(-c2ccc(OCC[18F])cc2)nc2ccc(Cl)cn12
Kp: 2

* * *

System: Lung
Assay comment: Biodistribution in Sprague-Dawley rat lungs assessed per gram of tissue at 1 MBq, iv after 4 hrs
Format: ADME, organism-based
Recorded conditions: in vivo

Compound: CCN(CC)C(=O)Cc1c(-c2ccc(OCC[18F])cc2)nc2ccc(Cl)cn12
Drug uptake, %ID: 8.1

Compound: CCN(CC)C(=O)Cc1c(-c2ccc(OCCC[18F])cc2)nc2ccc(Cl)cn12
Drug uptake, %ID: 2.2

Compound: CCN(CC)C(=O)Cc1c(-c2ccc(OCCC[18F])cc2)nn2c(C)cc(C)nc12
Drug uptake, %ID: 3.3

Compound: CCN(CC)C(=O)Cc1c(-c2ccc(OCC[18F])cc2)nn2c(C)cc(C)nc12 [DPA-714 F-18]
Drug uptake, %ID: 2.8
